biological target: Nuclear receptor subfamily 1 group I member 2 (Rattus norvegicus) (UniProt Q9R1A7); assay: Rat pregnane X receptor (rPXR) activation by small molecules, qHTS assay (AID 1346983); settings: rPXR luciferase reporter cells, One-Glo luminescence, 24 h; stronger effect = higher value; further: on the % scale 0 is the no-effect control and ±100 the full control effect; nearly all actives have a fitted effect of over 20% in size
Sequence (Q9R1A7 whole entry, looked up): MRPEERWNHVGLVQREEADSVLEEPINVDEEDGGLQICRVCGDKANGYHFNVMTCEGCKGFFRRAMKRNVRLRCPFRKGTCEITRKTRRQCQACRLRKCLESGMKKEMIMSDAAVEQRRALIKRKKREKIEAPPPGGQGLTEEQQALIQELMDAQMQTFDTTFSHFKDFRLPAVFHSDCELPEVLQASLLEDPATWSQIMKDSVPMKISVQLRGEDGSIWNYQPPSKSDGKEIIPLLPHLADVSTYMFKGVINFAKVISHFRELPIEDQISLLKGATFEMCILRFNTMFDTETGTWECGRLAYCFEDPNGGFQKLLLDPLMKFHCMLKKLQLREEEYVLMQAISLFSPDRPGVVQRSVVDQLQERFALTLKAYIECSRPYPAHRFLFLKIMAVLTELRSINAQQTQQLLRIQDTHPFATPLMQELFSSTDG
Results filed as inconclusive are left out.
measured.quantity: max activation (%)
Numbers only; they are read as %.

* CC(C)[N+]1(C)[C@@H]2CC[C@H]1CC(OC(=O)C(CO)c1ccccc1)C2 (some centres not stated) | -2.6
* CNCC(=O)N[C@@H](CCCN=C(N)N)C(=O)N[C@H](C(=O)N[C@@H](Cc1ccc(O)cc1)C(=O)N[C@H](C(=O)N[C@@H](Cc1cnc[nH]1)C(=O)N1CCC[C@H]1C(=O)N[C@@H](C)C(=O)O)C(C)C)C(C)C | -0.307

Ask: Give me measured max activation, please, for this compound: COC1[C@@H](O[C@@H]2O[C@H](C)[C@@H](O[C@H]3C[C@@](C)(O)[C@H](OC(=O)CC(C)C)[C@H](C)O3)[C@H](N(C)C)[C@H]2O)[C@@H](CC=O)C[C@@H](C)[C@@H](O)/C=C/C=C/C[C@@H](C)OC(=O)C[C@H]1OC(C)=O (some centres not stated)
Reply: -1.32

Ask: Give me measured max activation, please, for this compound: Cc1cn([C@H]2C[C@H](O)[C@@H](CO)O2)c(=O)[nH]c1=O
Reply: -1.3

Ask: Give me measured max activation, please, for this compound: CC(=O)OCC1=C(C(=O)O)N2C(=O)[C@@H](NC(=O)Cc3ccccc3)[C@H]2SC1
Reply: -4.93

Ask: Give me measured max activation, please, for this compound: N[C@@H](Cc1cnc[nH]1)C(=O)O
Reply: -4.66

Ask: Give me measured max activation, please, for this compound: NC(=O)C1c2ccccc2CCc2ccccc21
Reply: -2.21

---

Assay: qHTS assay to identify small molecule agonists of the estrogen related receptor (ERR) signaling pathway from Tox21 library (AID 1224849); further: on the % scale 0 is the no-effect control and ±100 the full control effect; nearly all actives have a fitted effect of over 15% in size
Conditions: ERR reporter cell line, ONE-Glo luciferase, 18 h; at 92.4 µM (top of the series) unless noted
Description: National Center for Advancing Translational Sciences [NCATS] NIH Chemical Genomics Center [NCGC] U.S. Environmental Protection Agency [EPA] National Institutes of Environmental Health Sciences [NIEHS] National Toxicology Program [NTP] […] The ERR cells were dispensed at 2,000 cells/5 ul/well in 1536-well white plates using a Multidrop dispenser. […] After 30-minute incubation at room temperature, the luminescence intensity in the plates was measured using a ViewLux plate reader.
Activity calls are given as the source filed them. Calls follow the shape of the full dose curve.
Recorded measurements of activity change, positive = activation, one per entry

• Cc1c[nH]c(=O)[nH]c1=O = 0.0206% (inactive)
• CC/C(=C(/c1ccc(O)cc1)c1ccc(OCCN(C)C)cc1)c1ccccc1 = -77.3% [at 42.5 µM] (inactive)
• C/C=C/C(=O)C1=C(C)C=CCC1(C)C = -1.28% (inactive)
• COc1ccc(OC)c(N=Nc2c(O)ccc3ccccc23)c1 = -14.1% (inactive)

Ask: Give me measured activity change, positive = activation, please, for this compound: O=C1CCC(=O)N1
Reply: 0.296% (inactive)

---

experiment: qHTS assay for identifying genotoxic compounds that show differential cytotoxicity against isogenic chicken DT40 cell lines with known DNA damage response pathways - wild type cell line (AID 743012); settings: DT40 wild type chicken cells viability, CellTiter-Glo, 40 h; series mostly up to 68.4 µM; further: nearly all actives have a fitted effect of over 60% in size
Inconclusive results are not listed. Calls of active or inactive are those of the source. The call rests on the fitted dose curve; in most records, active means well fitted cell-killing curve with a large enough effect in the repeat runs; inconclusive means weak or mixed curves, or effect the other way; inactive means no such curve, though single readings can be large or run the other way.
Pick one and only one: 1 (active), 0 (inactive)

Observe how each entry below is paired with its result.
* O=C1[O][Bi][O]c2ccccc21 | 0
* O=C1OC(O)C(C(Cl)Cl)=C1Cl (stereo not drawn) | 1
* C=C1[C@@H]2CC[C@@H](C2)C1(C)C | 0
* COC(=O)[C@H]1[C@H]2C[C@H]3c4[nH]c5ccccc5c4CCN3C[C@H]2CC[C@@H]1O | 0

Field: next compound
Ask: How did this test come out for O=C(CCN1CCC(c2ccccc2)C1)c1ccc2c(c1)OCCO2 (stereo not drawn) ?
Reply: 1

---

test: qHTS assay to identify small molecule antagonists of the androgen receptor (AR) signaling pathway using the MDA cell line - cell viability counter screen (AID 743041; further: nearly all actives have a fitted effect of over 45% in size); conditions: MDA-kb2 viability, CellTiter-Fluor, 16 h, cells co-treated with R1881 androgen agonist; series mostly up to 70.3 µM
Results filed as inconclusive are left out. Activity calls are given as the source filed them. Calls come from the whole dose curve; as a rule, active = well fitted cell-killing curve with a large enough effect in the repeat runs; inconclusive = weak or mixed curves, or effect the other way; inactive = flat fitted curve, though single readings scatter.
Pick one and only one: 1 for active, -1 for inactive

Observe how each entry below is paired with its result.
* C[C@H](NCCc1ccc(O)cc1)[C@H](O)c1ccc(O)cc1 | -1
* c1ccc2occc2c1 | -1
* c1ccc2c(c1)OCC(CN1CCCCC1)O2 (stereo not given) | -1

Ask: How did this test come out for COc1cc2c(cc1O)CCN[C@]21CS[C@@H]2c3c(OC(C)=O)c(C)c4c(c3[C@H](COC1=O)N1[C@@H]2[C@H]2c3c(cc(C)c(OC)c3O)C[C@@H]([C@@H]1O)N2C)OCO4 ?
Reply: -1

Ask: How did this test come out for CO/N=C(\C(=O)N[C@@H]1C(=O)N2C(C(=O)O)=C(C[N+]3(C)CCCC3)CS[C@H]12)c1csc(N)n1 ?
Reply: -1

Ask: How did this test come out for CCCC(CCC)C(=O)OC1C[C@H]2CC[C@@H](C1)[N+]2(C)C (stereo not given in full) ?
Reply: -1

Ask: How did this test come out for Cc1c(O)c(=O)ccn1C ?
Reply: -1

Ask: How did this test come out for NCCCC[C@H](NC(=O)[C@@H]1CCCN1C(=O)[C@@H]1CSSC[C@H](N)C(=O)N[C@@H](Cc2ccc(O)cc2)C(=O)N[C@@H](Cc2ccccc2)C(=O)N[C@@H](CCC(N)=O)C(=O)N[C@@H](CC(N)=O)C(=O)N1)C(=O)NCC(N)=O ?
Reply: -1

Ask: How did this test come out for COc1c(Br)cc(Br)c(C)c1Br ?
Reply: -1

Ask: How did this test come out for CC[C@@H](C(=O)[C@@H](C)[C@@H](O)[C@H](C)CCc1ccc(C)c(O)c1C(=O)O)[C@H]1O[C@](CC)([C@H]2CC[C@](O)(CC)[C@H](C)O2)C[C@@H]1C ?
Reply: 1

---

Assay: qHTS assay for small molecule agonists of the p53 signaling pathway - cell viability (AID 651633); further: nearly all actives have a fitted effect of over 30% in size
Details: p53RE-bla HCT-116 viability, ATP luminescence, 16 h; series mostly up to 83.3 µM
Excerpt: National Center for Advancing Translational Sciences [NCATS] NIH Chemical Genomics Center [NCGC] U.S. Environmental Protection Agency [EPA] National Institutes of Environmental Health Sciences [NIEHS] National Toxicology Program [NTP] U.S. Food and Drug Administration [FDA] p53, a tumor suppressor protein, is activated following cellular insult, including DNA damage and other cellular stresses. […] The activation of the reporter gene under culture conditions can be detected by fluorescence intensity. […]
Records with an inconclusive call do not appear. Calls of active or inactive are those of the source. The call rests on the fitted dose curve.
Pick one and only one: yes (1) (active), no (0) (inactive)

Observe how each entry below is paired with its result.
* O=P(O)(O)C(O)(Cn1ccnc1)P(=O)(O)O | no (0)
* O=[N+]([O-])c1ccc(O)c2ncccc12 | yes (1)
* CCN(CC)CCn1c(=O)c(Cc2ccc(OC)cc2)nc2ccccc21 | no (0)
* O=C(O)COc1ccc(C(=O)c2cccs2)c(Cl)c1Cl | no (0)
* COc1cc2c(cc1OC)[C@@H](Cc1cc(OC)c(OC)c(OC)c1)[N+](C)(CCCOC(=O)CC/C=C/CCC(=O)OCCC[N+]1(C)CCc3cc(OC)c(OC)cc3[C@H]1Cc1cc(OC)c(OC)c(OC)c1)CC2 (some centres not stated) | no (0)
* CC(C)c1ccc2sc3ccccc3c(=O)c2c1 | no (0)

Ask: How did this test come out for CC(C)Cc1ccc([C@H](C)C(=O)O)cc1 ?
Reply: no (0)

Ask: How did this test come out for CN1C(=O)C[C@@H](C(=O)N[C@@H](Cc2cnc[nH]2)C(=O)N2CCC[C@H]2C(N)=O)NC1=O ?
Reply: no (0)

---

target: Cytochrome P450 2C9 (Homo sapiens) (UniProt P11712); test: Cytochrome P450 Family 2 Subfamily C Member 9 (CYP2C9) small molecule antagonists: luciferase reporter qHTS assay (AID 1671198); details: P450-Glo CYP2C9 enzyme assay, luciferin luminescence; series mostly up to 115 µM; further: nearly all actives have a fitted effect of over 50% in size
Sequence (P11712 whole entry, looked up): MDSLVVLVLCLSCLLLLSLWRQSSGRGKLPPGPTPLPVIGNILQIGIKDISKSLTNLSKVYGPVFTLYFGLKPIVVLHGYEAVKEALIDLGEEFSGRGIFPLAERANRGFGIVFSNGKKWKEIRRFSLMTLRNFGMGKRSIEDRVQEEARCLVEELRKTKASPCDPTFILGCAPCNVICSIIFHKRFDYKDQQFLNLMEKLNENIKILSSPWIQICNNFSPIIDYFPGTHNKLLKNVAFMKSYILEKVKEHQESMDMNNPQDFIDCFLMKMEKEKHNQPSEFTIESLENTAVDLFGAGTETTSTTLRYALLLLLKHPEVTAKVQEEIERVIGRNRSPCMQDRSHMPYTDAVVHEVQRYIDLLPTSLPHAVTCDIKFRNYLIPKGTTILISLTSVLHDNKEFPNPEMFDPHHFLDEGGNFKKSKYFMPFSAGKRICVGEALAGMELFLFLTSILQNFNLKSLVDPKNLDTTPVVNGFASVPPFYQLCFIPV
Records with an inconclusive call do not appear. The source made the active and inactive calls. Calls come from the whole dose curve; as a rule, active = well fitted inhibition curve with a large enough effect in the repeat runs; inconclusive = weak or mixed curves; inactive = no such curve, though single readings can be large or run the other way.
Pick one and only one: active, inactive

* Oc1ccc2c(c1)CCC2 | inactive
* Cc1ccc(C2OC[C@@H]3OC(c4ccc(C)cc4)O[C@H]([C@H](O)CO)[C@@H]3O2)cc1 (some centres undefined) | inactive
* Cc1cc(Br)ccc1NC(=O)CCl | active
* CCC(O)CO (centres undefined) | inactive

Field: next compound
Ask: How did this test come out for S=C1NC=NC2N=CNC12 (centres undefined) ?
Reply: active
